From: paper PMC10397247

- system_name: T1, 4H43-AA
- T1 chain: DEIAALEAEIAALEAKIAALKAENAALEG
- test_description: two-hybrid library CCmax;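 note: natural log of median RNA to DNA barcode read ratio; higher means stronger binding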
- assay_context: mean of both orientations
# interaction score values compiled below

Look over these answered cases.
binder | interaction score
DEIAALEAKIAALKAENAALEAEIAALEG [4H337-AA] | -0.783
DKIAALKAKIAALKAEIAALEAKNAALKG [4H2888-AA] | 1.89
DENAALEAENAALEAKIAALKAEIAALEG [4H1193-AA] | -0.557

Now take the following binder into account.
interaction score reported for this binder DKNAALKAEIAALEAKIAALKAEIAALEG [4H3625-AA] : 1.85
